Molecular target: Beta-lactamase (Pseudomonas aeruginosa, UniProt Q79MP6)
Sequence (Q79MP6 whole entry): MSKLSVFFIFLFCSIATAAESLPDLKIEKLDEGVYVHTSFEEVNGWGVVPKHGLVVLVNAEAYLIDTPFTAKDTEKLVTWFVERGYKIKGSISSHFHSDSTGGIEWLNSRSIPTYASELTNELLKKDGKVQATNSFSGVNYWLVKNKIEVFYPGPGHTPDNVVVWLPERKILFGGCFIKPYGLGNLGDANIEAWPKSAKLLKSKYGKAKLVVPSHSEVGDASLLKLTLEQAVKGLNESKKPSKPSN
Experiment: Competitive inhibition of Pseudomonas aeruginosa metallo-beta-lactamase IMP-1 expressed in Escherichia coli BL21(DE3) using CENTA as substrate by spectrophotometric analysis
pKi: −log10 of the molar value.
measureName: pKi

Past entries and their recorded results:
smilesRepresentation: COc1ccc(-n2c(-c3ccccc3)c(-c3ccccc3)c3c(Cl)ncnc32)cc1
pKi: 4.92
--
smilesRepresentation: Cc1ccc(-n2c(-c3ccccc3)c(-c3ccccc3)c3c(Cl)ncnc32)cc1
pKi: 4.72
--
smilesRepresentation: Cc1ccc(-n2cc(-c3ccccc3)c3c(Cl)ncnc32)cc1
pKi: 4.48
--
smilesRepresentation: Cc1ccc(-n2c(-c3ccccc3)c(-c3ccccc3)c3c(N/N=C/c4ccccc4)ncnc32)cc1
pKi: 4.74

[a] Cc1ccc(-n2c(-c3ccccc3)c(-c3ccccc3)c3c2ncn2c(=S)[nH]nc32)cc1
[b] COc1ccc(-n2c3c(c(-c4ccccc4)c2-c2ccccc2)C(=C(C#N)C#N)NC=N3)cc1
Q) Between a and b , which one shows the larger pKi value? Respond with the label that goes with your answer.
A) a
(a: 4.82, b: 4.54)
